IC50 for MALT1 (Homo sapiens), merged from several publications.
Attribute Measured: IC50 (nM)

Observe how each entry below is paired with its result.
- Smiles Record: "CCOC(=O)c1cncc(NC(=O)Nc2cnc(-n3nccn3)c(Cl)c2)c1[C@H](C)OC"
  Endpoint Unit: "nM"
  IC50: 1480
- Smiles Record: "O=C(Nc1cnc(-n2nccn2)c(Cl)c1)c1cnn(-c2ccncc2)c1C(F)(F)F"
  Endpoint Unit: "nM"
  IC50: 282
- Smiles Record: "CCOc1ncc(NC(=O)c2cnn(-c3cccc4ncccc34)c2C(F)(F)F)cc1C#N"
  Endpoint Unit: "nM"
  IC50: 123

(a) COc1ncc(NC(=O)Nc2cnc(C)c(Cl)c2[C@H](C)OC)cc1C#N
(b) CS(=O)(=O)c1ncc(NC(=O)c2cnn(-c3ccc(F)c4nccn34)c2C(F)(F)F)cc1C(F)(F)F
(c) O=C(Nc1ccc(-n2nccn2)c(Cl)c1)c1cnn(-c2cccc3c(=O)[nH]ccc23)c1C(F)(F)F
(d) Nc1nc(-n2ncc(C(=O)Nc3cnc(-n4nccn4)c(C(F)(F)F)c3)c2C(F)(F)F)ccc1F
Ascending by IC50, please. Reply: labels, ordered per the request. c, d, a, b
